Dear all, this message contains IC50 results, target or system UniProtKB P42336.
Sequence (P42336 whole entry, species assumed): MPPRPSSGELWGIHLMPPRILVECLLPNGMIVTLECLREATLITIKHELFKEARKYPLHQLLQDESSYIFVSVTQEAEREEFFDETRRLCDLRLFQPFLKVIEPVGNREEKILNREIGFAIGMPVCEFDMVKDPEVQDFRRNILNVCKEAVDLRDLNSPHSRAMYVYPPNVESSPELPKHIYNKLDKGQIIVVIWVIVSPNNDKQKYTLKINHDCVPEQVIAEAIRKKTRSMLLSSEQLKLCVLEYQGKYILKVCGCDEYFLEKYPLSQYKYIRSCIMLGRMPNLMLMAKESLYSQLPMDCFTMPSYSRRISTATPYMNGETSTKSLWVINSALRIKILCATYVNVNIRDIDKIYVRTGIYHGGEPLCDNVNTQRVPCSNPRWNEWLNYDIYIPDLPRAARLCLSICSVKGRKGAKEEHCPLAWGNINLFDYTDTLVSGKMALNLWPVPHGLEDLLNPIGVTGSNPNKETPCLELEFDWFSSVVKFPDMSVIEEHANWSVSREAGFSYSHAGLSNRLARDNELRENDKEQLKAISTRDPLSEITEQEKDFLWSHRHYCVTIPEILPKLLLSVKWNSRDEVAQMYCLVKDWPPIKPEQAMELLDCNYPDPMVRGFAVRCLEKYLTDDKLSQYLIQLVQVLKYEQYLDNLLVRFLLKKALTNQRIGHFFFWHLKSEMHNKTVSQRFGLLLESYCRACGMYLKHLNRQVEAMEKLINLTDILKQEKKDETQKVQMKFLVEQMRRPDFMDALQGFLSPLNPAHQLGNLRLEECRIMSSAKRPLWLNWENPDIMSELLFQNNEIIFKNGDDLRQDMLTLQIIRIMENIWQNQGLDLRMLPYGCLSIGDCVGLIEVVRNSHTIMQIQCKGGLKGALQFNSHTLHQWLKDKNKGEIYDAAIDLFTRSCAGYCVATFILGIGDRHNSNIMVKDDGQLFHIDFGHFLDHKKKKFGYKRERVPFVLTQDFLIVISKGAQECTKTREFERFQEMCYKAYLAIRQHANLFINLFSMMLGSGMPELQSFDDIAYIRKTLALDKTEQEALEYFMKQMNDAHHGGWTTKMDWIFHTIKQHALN
Sequence (P27986 whole entry partner, species assumed): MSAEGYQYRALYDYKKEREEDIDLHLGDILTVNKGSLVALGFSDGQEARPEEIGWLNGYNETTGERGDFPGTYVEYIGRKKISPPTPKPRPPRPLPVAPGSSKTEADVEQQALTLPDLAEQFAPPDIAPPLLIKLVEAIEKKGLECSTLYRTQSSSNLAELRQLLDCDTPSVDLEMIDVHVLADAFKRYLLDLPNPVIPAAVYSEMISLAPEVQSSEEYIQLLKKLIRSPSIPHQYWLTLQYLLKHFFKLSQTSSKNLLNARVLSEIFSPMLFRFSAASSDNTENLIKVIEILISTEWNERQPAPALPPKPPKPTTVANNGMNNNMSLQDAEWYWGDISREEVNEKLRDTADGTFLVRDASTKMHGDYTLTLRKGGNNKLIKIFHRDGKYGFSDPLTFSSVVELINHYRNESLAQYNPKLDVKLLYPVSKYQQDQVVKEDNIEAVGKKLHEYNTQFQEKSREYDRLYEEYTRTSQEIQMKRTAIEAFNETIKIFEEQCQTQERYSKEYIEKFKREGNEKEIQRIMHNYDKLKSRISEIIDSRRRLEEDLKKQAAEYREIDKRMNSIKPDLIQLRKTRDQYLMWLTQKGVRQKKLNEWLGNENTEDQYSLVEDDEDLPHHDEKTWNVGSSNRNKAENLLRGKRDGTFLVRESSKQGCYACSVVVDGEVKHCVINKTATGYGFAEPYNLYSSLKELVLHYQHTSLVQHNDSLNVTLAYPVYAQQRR
Endpoint label: IC50 (nM)

// known answers, use as guide
compound="C[C@@H]1CN(C(=O)c2ccc(-c3ccnc4c3c(/C=C3\\Oc5cccc(O)c5C3=O)cn4C)cc2)C[C@H](C)O1 [Compound 303]" assay_result=75
compound="CN(C)C(=O)C1CCN(c2ccnc3c2c(/C=C2\\Oc4ccc(NC(=O)NC5CCN(C(=O)C(F)(F)F)CC5)cc4C2=O)cn3C)CC1 [Compound 300]" assay_result=736
compound="Cn1cc(/C=C2\\Oc3cc(O)cc(O)c3C2=O)c2c(-c3ccc(S(N)(=O)=O)cc3)ccnc21 [Compound 17]" assay_result=7

P. COc1ccccc1-c1ccnc2c1c(/C=C1\Oc3cc(O)cc(O)c3C1=O)cn2C [Compound 14]
Q. Cn1cc(/C=C2\Oc3cc(O)cc(O)c3C2=O)c2c(-c3ccc(NS(C)(=O)=O)cc3)ccnc21 [Compound 36]
R. Cn1cc(C=C2Oc3c(ccc(O)c3O)C2=O)c2cccnc21 [Compound 2]
S. Cn1c(-c2ccccc2)c(/C=C2\Oc3cc(O)ccc3C2=O)c2cccnc21 [Compound 28]
Exercise: Thanks in advance: please rank these 4 entries by IC50, highest to lowest. Please reply with the labels ordered as requested. Many thanks.
Solution: S, R, P, Q
